- procedure.summary: Blood pharmacokinetics after oral dosing (fluorescence HPLC, noncompartmental WinNonlin model)
- Assay type: in vivo, human
- stated.conditions: human, whole blood, oral, 1750 mg; after 1,750 mg AQ-13 over 3 d, median (range); read-out: t1/2 of metabolite (converted)
quantity: half-life (days)
Write the number in days without appending the unit.

Query string: Could you share which half-life value was measured for CCNCCCNc1ccnc2cc(Cl)ccc12 ?
Result string: 10.5

* * *

- procedure.summary: Blood pharmacokinetics after oral dosing (fluorescence HPLC, noncompartmental WinNonlin model)
- Assay type: in vivo, human
- stated.conditions: human, in vivo; single oral 600 mg dose, median (range)
- Procedure: Study drugs were administered in the GCRC on an empty stomach between 8 and 9 AM the morning after admission (after fasting for ≥ 10 h).
quantity: Vd/F (L)
Kindly provide the numeric value in L only, without the unit symbol.

Query string: Which Vd/F reading was recorded for the compound CCN(CC)CCCC(C)Nc1ccnc2cc(Cl)ccc12 (stereo not shown) [CQ, chloroquine] ?
Result string: 8670

* * *

- procedure.summary: Blood pharmacokinetics after oral dosing (fluorescence HPLC, noncompartmental WinNonlin model)
- Format: in vivo, human
- stated.conditions: human, whole blood, po, 1750 mg, 1,750 mg oral over 3 d, median (range); read-out: AUCτ
quantity: AUC (µM·h)
State the answer as a number, implicitly in µM·h.

Query string: Which AUC is reported for this molecule? CCN(CC)CCCNc1ccnc2cc(Cl)ccc12
Result string: 493

* * *

- procedure.summary: Blood pharmacokinetics after oral dosing (fluorescence HPLC, noncompartmental WinNonlin model)
- Type: in vivo, human
- stated.conditions: human, whole blood, oral; after 600 mg AQ-13, median; read-out: Tmax of metabolite
quantity: Tmax (h)
Give the value in h but do not write h after it.

Query string: Recorded Tmax for CCNCCCNc1ccnc2cc(Cl)ccc12 [AQ-72] , please?
Result string: 15

* * *

- procedure.summary: Blood pharmacokinetics after oral dosing (fluorescence HPLC, noncompartmental WinNonlin model)
- Assay type: in vivo, human
- stated.conditions: human; single oral 600 mg dose, whole blood, median (range); read-out: MRT (converted)
quantity: MRT

Query string: # get_value(readout='MRT', item= CCN(CC)CCCNc1ccnc2cc(Cl)ccc12 )
Result string: 10.5 days

* * *

- procedure.summary: Blood pharmacokinetics after oral dosing (fluorescence HPLC, noncompartmental WinNonlin model)
- Format: in vivo, human
- stated.conditions: human, whole blood, po, 600 mg, single oral 600 mg dose, whole blood, median (range); read-out: AUCτ (total area under the curve)
quantity: AUC (µM·h)
The reply should contain only the number, in µM·h.

Query string: Entry CCN(CC)CCCNc1ccnc2cc(Cl)ccc12 has what AUC?
Result string: 141

* * *

- procedure.summary: Blood pharmacokinetics after oral dosing (fluorescence HPLC, noncompartmental WinNonlin model)
- Format: in vivo, human
- stated.conditions: human, in vivo, 1500 mg; 1,500 mg oral over 3 d, median (range); read-out: Tmax
quantity: Tmax
Be sure to follow the number with its unit.

Query string: If you can, please state the reported Tmax value of CCN(CC)CCCC(C)Nc1ccnc2cc(Cl)ccc12 (stereo not shown) [CQ, chloroquine] .
Result string: 26.3 h

* * *

- procedure.summary: Blood pharmacokinetics after oral dosing (fluorescence HPLC, noncompartmental WinNonlin model)
- Assay type: in vivo, human
- stated.conditions: human; single oral 700 mg adjustment dose, whole blood, median (range); read-out: Cmax
quantity: Cmax
Kindly format the answer as number then unit.

Query string: Name the reported Cmax value associated with the compound CCN(CC)CCCNc1ccnc2cc(Cl)ccc12
Result string: 1600 nM

Reference for the values: paper PMC1764434
